condition.info: 313.15 K; 101 kPa; Liquid; ultrasonic interferometer
endpoint: speed of sound (m/s)

{"columns": ["compound", "endpoint", "units.symbol", "measured.result"],
 "data": [
  ["C[NH+](C)C.O=P([O-])(O)O [trimethylammonium dihydrogen phosphate]", "speed of sound", "m/s", 1664],
  ["CC(=O)[O-].C[NH+](C)C [trimethylammonium acetate]", "speed of sound", "m/s", 1490],
  ["C[NH+](C)C.O=S(=O)([O-])O [trimethylammonium hydrogen sulfate]", "speed of sound", "m/s", 1552],
  ["CCN(CC)CC.O=P(O)(O)O [triethylammonium dihydrogen phosphate]", "speed of sound", "m/s", 1730],
  ["CN1CCCC1=O [N-methylpyrrolidone]", "speed of sound", "m/s", 1520]
]}

###

condition.info: 313.15 K; 101 kPa; Liquid; Vibrating tube method
endpoint: mass density (kg/m3)

{"columns": ["molecule", "units.symbol", "mass density"],
 "data": [
  ["C[NH+](C)C.O=P([O-])(O)O [trimethylammonium dihydrogen phosphate]", "kg/m3", 1344.53]
]}

(I) CN1CCCC1=O
(II) C[NH+](C)C.O=S(=O)([O-])O [trimethylammonium hydrogen sulfate]
Problem: Smaller mass density value, I vs II ? Let me know the label of the one you choose.
Solution: I
(I: 1014.74 kg/m3, II: 1455.63 kg/m3)

###

condition.info: 303.15 K; 101 kPa; Liquid; ultrasonic interferometer
endpoint: speed of sound (m/s)

{"columns": ["molecule", "speed of sound [m/s]"],
 "data": [
  ["CCN(CC)CC.O=P(O)(O)O [triethylammonium dihydrogen phosphate]", 1769],
  ["CN1CCCC1=O", 1552],
  ["C[NH+](C)C.O=S(=O)([O-])O [trimethylammonium hydrogen sulfate]", 1560],
  ["C[NH+](C)C.O=P([O-])(O)O [trimethylammonium dihydrogen phosphate]", 1660],
  ["CC(=O)[O-].C[NH+](C)C [trimethylammonium acetate]", 1514]
]}

###

condition.info: 303.15 K; 101 kPa; Liquid; Vibrating wire viscometry
endpoint: viscosity (mPa·s)

// below: answered compounds
{"columns": ["compound", "measured.result"],
 "data": [
  ["C[NH+](C)C.O=P([O-])(O)O [trimethylammonium dihydrogen phosphate]", 6.46],
  ["CN1CCCC1=O [N-methylpyrrolidone]", 1.49],
  ["CC(=O)[O-].C[NH+](C)C [trimethylammonium acetate]", 2.37]
]}

(P) CCN(CC)CC.O=P(O)(O)O [triethylammonium dihydrogen phosphate]
(Q) C[NH+](C)C.O=S(=O)([O-])O [trimethylammonium hydrogen sulfate]
Problem: Given the listed items, does P or Q have the lesser reported viscosity? To answer, give the label that identifies your chosen option.
Solution: Q
(Q: 4.48 mPa·s, P: 57.1 mPa·s)

###

condition.info: 313.15 K; 101 kPa; Liquid; Vibrating wire viscometry
endpoint: viscosity (mPa·s)

(I) CC(=O)[O-].C[NH+](C)C [trimethylammonium acetate]
(II) CCN(CC)CC.O=P(O)(O)O [triethylammonium dihydrogen phosphate]
Problem: Param metric = viscosity; output whichever of I , II has the minimum value. Write down the label of the entry you select.
Solution: I

(A) C[NH+](C)C.O=P([O-])(O)O [trimethylammonium dihydrogen phosphate]
(B) C[NH+](C)C.O=S(=O)([O-])O [trimethylammonium hydrogen sulfate]
Problem: Parameter metric = viscosity. Return the lower-valued option from A and B . Response format: the label of the selected entry.
Solution: B

###

condition.info: 308.15 K; 101 kPa; Liquid; Vibrating wire viscometry
endpoint: viscosity (mPa·s)

{"columns": ["compound", "units.symbol", "viscosity"],
 "data": [
  ["C[NH+](C)C.O=P([O-])(O)O [trimethylammonium dihydrogen phosphate]", "mPa·s", 5.61]
]}

(1) CC(=O)[O-].C[NH+](C)C [trimethylammonium acetate]
(2) C[NH+](C)C.O=S(=O)([O-])O [trimethylammonium hydrogen sulfate]
(3) CN1CCCC1=O [N-methylpyrrolidone]
(4) CCN(CC)CC.O=P(O)(O)O [triethylammonium dihydrogen phosphate]
Problem: Please put the entries in order of rising viscosity. In plain terms: list the labels in the order you were asked to.
Solution: 3, 1, 2, 4
(3: 1.39 mPa·s, 1: 2.06 mPa·s, 2: 3.94 mPa·s, 4: 49.53 mPa·s)

###

condition.info: 298.15 K; 101 kPa; Liquid; Vibrating wire viscometry
endpoint: viscosity (mPa·s)

Example entries begin here.
{"columns": ["compound", "measured.result"],
 "data": [
  ["C[NH+](C)C.O=P([O-])(O)O [trimethylammonium dihydrogen phosphate]", 7.64],
  ["C[NH+](C)C.O=S(=O)([O-])O [trimethylammonium hydrogen sulfate]", 5.1]
]}

(I) CN1CCCC1=O
(II) CC(=O)[O-].C[NH+](C)C [trimethylammonium acetate]
Problem: Which of the two items, I and II , has the greater recorded viscosity? Lab note: record the label of whichever item you select.
Solution: II
(II: 2.76 mPa·s, I: 1.66 mPa·s)

###

condition.info: 308.15 K; 101 kPa; Liquid; ultrasonic interferometer
endpoint: speed of sound (m/s)

{"columns": ["molecule", "measured.result"],
 "data": [
  ["C[NH+](C)C.O=S(=O)([O-])O [trimethylammonium hydrogen sulfate]", 1556],
  ["CN1CCCC1=O", 1528],
  ["CC(=O)[O-].C[NH+](C)C [trimethylammonium acetate]", 1508],
  ["C[NH+](C)C.O=P([O-])(O)O [trimethylammonium dihydrogen phosphate]", 1661],
  ["CCN(CC)CC.O=P(O)(O)O [triethylammonium dihydrogen phosphate]", 1757]
]}

###

condition.info: 298.15 K; 101 kPa; Liquid; ultrasonic interferometer
endpoint: speed of sound (m/s)

{"columns": ["compound", "units.symbol", "speed of sound"],
 "data": [
  ["CN1CCCC1=O", "m/s", 1572],
  ["C[NH+](C)C.O=P([O-])(O)O [trimethylammonium dihydrogen phosphate]", "m/s", 1672],
  ["CCN(CC)CC.O=P(O)(O)O [triethylammonium dihydrogen phosphate]", "m/s", 1794],
  ["CC(=O)[O-].C[NH+](C)C [trimethylammonium acetate]", "m/s", 1544],
  ["C[NH+](C)C.O=S(=O)([O-])O [trimethylammonium hydrogen sulfate]", "m/s", 1564]
]}
